Entries annotated with measured IC50
Tested on: U937
ASSAY_COMMENT: Cell Titer Glo cell viability assay, 48 h
Format: cell-based, human
CONDITION_LABEL: Homo sapiens, U-937; 48 h; mean of 2 independent experiments; 0 = less than 10 nM, cell line not given; read-out: IC50 of inhibitors on cell lines, m (mean)

# example entries with known answers
Q) Quick check: IC50 of `COc1nccc(-c2c(-c3ccc(F)cc3)ncn2C2CCNCC2)n1` ?
A) > 10 µM

Q) Quick check: IC50 of `CC(C)[C@H](CO)Nc1nc(Nc2ccc(C(=O)O)c(Cl)c2)c2ncn(C(C)C)c2n1` ?
A) > 10 µM

Q) Quick check: IC50 of `Cc1[nH]c(/C=C2\C(=O)Nc3ccccc32)c(C)c1CCC(=O)O` ?
A) > 10 µM

API: the following record is the query input.
Q) Quick check: IC50 of `NC(=O)c1ccc(N(C(N)=O)c2c(F)cccc2F)nc1-c1ccc(F)cc1F` ?
A) > 10 µM
